measurement.target: monkey GPC3-His protein (monkey)
experimental.details: ELISA, monkey GPC3-His coated; antibody 13.33 nM

[
  {
    "binder": "hAb003LH2L1a (antibody, human IgG1, V domains shown) VH: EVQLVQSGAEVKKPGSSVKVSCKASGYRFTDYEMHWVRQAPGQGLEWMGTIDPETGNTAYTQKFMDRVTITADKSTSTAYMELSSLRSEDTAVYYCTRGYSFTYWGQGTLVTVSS VL: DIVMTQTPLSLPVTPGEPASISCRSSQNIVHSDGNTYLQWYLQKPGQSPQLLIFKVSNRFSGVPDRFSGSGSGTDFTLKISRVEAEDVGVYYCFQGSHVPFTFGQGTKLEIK",
    "OD450 nm": 2.34
  },
  {
    "binder": "hAb007LH1L1a (antibody, human IgG1, V domains shown) VH: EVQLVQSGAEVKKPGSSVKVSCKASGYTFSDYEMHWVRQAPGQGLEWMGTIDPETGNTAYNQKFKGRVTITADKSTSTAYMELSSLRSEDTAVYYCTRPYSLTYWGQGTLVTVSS VL: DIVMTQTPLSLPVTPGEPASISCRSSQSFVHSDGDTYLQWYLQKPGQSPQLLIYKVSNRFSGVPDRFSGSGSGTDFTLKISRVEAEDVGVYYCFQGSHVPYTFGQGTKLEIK",
    "OD450 nm": 2.44
  },
  {
    "binder": "hAb006LH3L1 (antibody, human IgG1, V domains shown) VH: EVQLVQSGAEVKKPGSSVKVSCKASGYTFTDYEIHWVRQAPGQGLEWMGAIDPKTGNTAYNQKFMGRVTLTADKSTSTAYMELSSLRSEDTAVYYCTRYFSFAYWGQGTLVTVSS VL: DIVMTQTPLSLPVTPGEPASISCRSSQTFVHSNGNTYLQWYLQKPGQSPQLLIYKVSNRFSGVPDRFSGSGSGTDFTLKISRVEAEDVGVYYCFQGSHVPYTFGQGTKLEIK",
    "OD450 nm": 2.44
  },
  {
    "binder": "hAb006LH2L1 (antibody, human IgG1, V domains shown) VH: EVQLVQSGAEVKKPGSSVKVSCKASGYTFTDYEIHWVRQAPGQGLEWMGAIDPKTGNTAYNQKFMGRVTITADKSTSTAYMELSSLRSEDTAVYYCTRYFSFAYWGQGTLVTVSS VL: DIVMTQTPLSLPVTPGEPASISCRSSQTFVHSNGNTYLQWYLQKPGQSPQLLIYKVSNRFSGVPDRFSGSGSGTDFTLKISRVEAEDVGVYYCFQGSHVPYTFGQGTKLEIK",
    "OD450 nm": 2.23
  },
  {
    "binder": "hAb003LH1L1 (antibody, human IgG1, V domains shown) VH: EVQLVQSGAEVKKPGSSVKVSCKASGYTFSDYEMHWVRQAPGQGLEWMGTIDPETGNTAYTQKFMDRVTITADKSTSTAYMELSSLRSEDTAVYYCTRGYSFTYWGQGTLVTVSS VL: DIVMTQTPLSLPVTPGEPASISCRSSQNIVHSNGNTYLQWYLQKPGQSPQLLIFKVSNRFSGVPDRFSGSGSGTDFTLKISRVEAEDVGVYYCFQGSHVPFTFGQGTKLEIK",
    "OD450 nm": 2.62
  },
  {
    "binder": "hAb005LH3L1 (antibody, human IgG1, V domains shown) VH: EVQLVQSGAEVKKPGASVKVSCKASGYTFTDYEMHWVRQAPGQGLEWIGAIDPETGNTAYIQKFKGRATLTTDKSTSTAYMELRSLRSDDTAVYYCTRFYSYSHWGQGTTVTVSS VL: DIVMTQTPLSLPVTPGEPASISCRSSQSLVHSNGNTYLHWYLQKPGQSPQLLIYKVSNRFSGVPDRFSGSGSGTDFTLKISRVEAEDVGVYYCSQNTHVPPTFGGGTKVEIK",
    "OD450 nm": 1.13
  },
  {
    "binder": "hAb007LH1L1b (antibody, human IgG1, V domains shown) VH: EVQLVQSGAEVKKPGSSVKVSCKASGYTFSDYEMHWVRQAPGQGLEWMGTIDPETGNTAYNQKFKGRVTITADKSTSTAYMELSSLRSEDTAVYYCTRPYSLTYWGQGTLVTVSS VL: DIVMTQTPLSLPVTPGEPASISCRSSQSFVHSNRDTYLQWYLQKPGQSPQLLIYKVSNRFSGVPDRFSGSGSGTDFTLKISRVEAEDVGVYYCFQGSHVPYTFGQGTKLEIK",
    "OD450 nm": 2.37
  },
  {
    "binder": "hAb005LH3L1a (antibody, human IgG1, V domains shown) VH: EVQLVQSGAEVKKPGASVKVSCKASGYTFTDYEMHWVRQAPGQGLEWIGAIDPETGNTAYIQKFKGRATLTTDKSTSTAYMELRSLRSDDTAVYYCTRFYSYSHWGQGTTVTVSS VL: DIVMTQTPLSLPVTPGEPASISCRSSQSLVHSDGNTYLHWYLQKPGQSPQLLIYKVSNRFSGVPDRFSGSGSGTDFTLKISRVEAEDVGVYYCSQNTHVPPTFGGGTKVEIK",
    "OD450 nm": 0.161
  },
  {
    "binder": "hAb007LH2L1 (antibody, human IgG1, V domains shown) VH: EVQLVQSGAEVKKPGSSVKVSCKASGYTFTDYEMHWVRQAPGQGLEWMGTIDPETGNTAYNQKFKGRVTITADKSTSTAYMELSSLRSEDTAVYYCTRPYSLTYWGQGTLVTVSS VL: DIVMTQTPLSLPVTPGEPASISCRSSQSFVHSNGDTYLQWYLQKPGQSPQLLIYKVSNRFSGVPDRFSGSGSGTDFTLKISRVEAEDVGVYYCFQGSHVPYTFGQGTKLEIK",
    "OD450 nm": 2.47
  },
  {
    "binder": "hAb007LH1L1 (antibody, human IgG1, V domains shown) VH: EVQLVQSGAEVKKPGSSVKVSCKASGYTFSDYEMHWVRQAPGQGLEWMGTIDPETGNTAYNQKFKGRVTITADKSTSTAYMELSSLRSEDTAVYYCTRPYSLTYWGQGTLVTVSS VL: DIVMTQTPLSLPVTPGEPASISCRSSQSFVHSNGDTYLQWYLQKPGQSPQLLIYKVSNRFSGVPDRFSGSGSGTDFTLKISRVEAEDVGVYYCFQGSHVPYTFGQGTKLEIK",
    "OD450 nm": 2.54
  }
]
